EXPERIMENT: Cytotoxicity analysis on HFF cells (CCK-8)
Format: cell-based, human
CONDITIONS_USED: human, human foreskin fibroblasts (HFF) cells; test compounds at 50 µg/mL
Entries and their viability at 24 h, 50 µg/mL
TEST_READOUT: viability at 24 h, 50 µg/mL (%)

> print(dat)
                                   compound                 test.readout  readout.number
1             CCCCCCCCc1cn(Cc2ccc(C)cc2)nn1  viability at 24 h, 50 µg/mL             110
2  NNC(=O)c1ccncc1 [FJS-INH, isoniazid, reference compound]  viability at 24 h, 50 µg/mL             118
3                    CCCCc1cn(Cc2ccccc2)nn1  viability at 24 h, 50 µg/mL             100
4    FC(F)(F)c1ccc(Cn2cc(CSc3ccccc3)nn2)cc1  viability at 24 h, 50 µg/mL             100
5                 CCCCc1cn(Cc2ccc(C)cc2)nn1  viability at 24 h, 50 µg/mL            96.2
